Tested on: KM12 colon
PROCEDURE TEXT: NCI tumour cell line growth inhibition, 48 h
MEASURED PROPERTY: TGI

Ask: Param item = `COC(=O)c1ccccc1C#CC#Cc1ccccc1C(=O)OC` ; retrieve measured TGI.
Result: > 10 µM

Ask: Param item = COC(=O)C1=C(C)NC2(O)C=CC(=O)C3C(=O)N(c4ccccc4)C(=O)C132 (centres undefined) ; retrieve measured TGI.
Result: > 100 µM

Ask: Param item = `COCCOC(=O)NC(=O)Nc1ccc(/C(=N/O)c2ccc(Cl)cc2)cc1` ; retrieve measured TGI.
Result: 29.1 µM

Ask: Param item = `CN(C)C(N)=NC#N` ; retrieve measured TGI.
Result: > 100 µM

Ask: Param item = CCCCCCCCCCCCCCCCCCNc1ccn(C2OC(COP(=O)(O)OCC3CCC(n4cnc5c(=O)[nH]cnc54)O3)C(O)C2O)c(=O)n1 (centres undefined) ; retrieve measured TGI.
Result: > 100 µM

Ask: Param item = `COC(=O)/C=C(\C)C(=O)N(C)c1ccccc1I` ; retrieve measured TGI.
Result: > 100 µM

Ask: Param item = `COc1cc2noc(-c3ccccc3)c2cc1OC` ; retrieve measured TGI.
Result: > 100 µM

Ask: Param item = `COc1cccc(-c2ccc3c4c2O[C@H]2c5[nH]c6ccccc6c5C[C@@]5(O)[C@@H](C3)N(CC3CC3)CC[C@]425)c1` ; retrieve measured TGI.
Result: 3.26 µM

Ask: Param item = Cc1ccc(OCC2OC(n3cnc4c(N(C)C)nc(Br)nc43)CC2Oc2ccc(C)cc2)cc1 (centres undefined) ; retrieve measured TGI.
Result: > 100 µM

Ask: Param item = `CN(C)c1ccc(/C=C2\N=C(NN)NC2=O)cc1` ; retrieve measured TGI.
Result: > 100 µM

Ask: Param item = CCC1C(c2cccc(OC)c2O)c2cc3c(cc2OC1N1CCCC1)OCO3 (centres undefined) ; retrieve measured TGI.
Result: 50.8 µM

Ask: Param item = `[Se]=P(c1ccccc1)(c1ccccc1)c1ccc(C(c2ccccc2)=P(c2ccccc2)(c2ccccc2)c2ccccc2)cc1` ; retrieve measured TGI.
Result: 1.8 µM

Ask: Param item = C(CCC[Te][Te]CCCCCCOC1CCCCO1)CCOC1CCCCO1 (centres undefined) ; retrieve measured TGI.
Result: 28.9 µM

Ask: Param item = `CCOc1cc2c(NCCCN(CCO)CCO)ncnc2c(OCC)c1OCC` ; retrieve measured TGI.
Result: > 100 µM

* * *

System: NCI-H23 lung
PROCEDURE TEXT: NCI tumour cell line growth inhibition, 48 h
MEASURED PROPERTY: TGI

Ask: Param item = `C1CSCCCSCCSCCCSC1` ; retrieve measured TGI.
Result: > 100 µM

Ask: Param item = `COc1ccc(S(=O)(=O)O)cc1-n1nc(C(=O)Nc2ccccc2)n[n+]1-c1cc(S(=O)(=O)[O-])ccc1OC` ; retrieve measured TGI.
Result: > 100 µM

Ask: Param item = `COc1ccccc1NC(=O)n1nc(N)c2ccccc21` ; retrieve measured TGI.
Result: > 100 µM

* * *

System: SR leukemia
PROCEDURE TEXT: NCI tumour cell line growth inhibition, 48 h
MEASURED PROPERTY: TGI

Ask: Param item = `O=C(/C=C/c1cccc(Br)c1)c1cccs1` ; retrieve measured TGI.
Result: > 100 µM

Ask: Param item = `O=C1CSc2nc3ccccc3n2/C=N\N1` ; retrieve measured TGI.
Result: > 100 µM

Ask: Param item = `CN1NC2(CCCCC2)ON=C1c1ccccc1` ; retrieve measured TGI.
Result: > 100 µM
